Documented IC50 across a set of molecules
Target: Phosphodiesterase (Bos taurus)
Sequence (F1MPW5 whole entry): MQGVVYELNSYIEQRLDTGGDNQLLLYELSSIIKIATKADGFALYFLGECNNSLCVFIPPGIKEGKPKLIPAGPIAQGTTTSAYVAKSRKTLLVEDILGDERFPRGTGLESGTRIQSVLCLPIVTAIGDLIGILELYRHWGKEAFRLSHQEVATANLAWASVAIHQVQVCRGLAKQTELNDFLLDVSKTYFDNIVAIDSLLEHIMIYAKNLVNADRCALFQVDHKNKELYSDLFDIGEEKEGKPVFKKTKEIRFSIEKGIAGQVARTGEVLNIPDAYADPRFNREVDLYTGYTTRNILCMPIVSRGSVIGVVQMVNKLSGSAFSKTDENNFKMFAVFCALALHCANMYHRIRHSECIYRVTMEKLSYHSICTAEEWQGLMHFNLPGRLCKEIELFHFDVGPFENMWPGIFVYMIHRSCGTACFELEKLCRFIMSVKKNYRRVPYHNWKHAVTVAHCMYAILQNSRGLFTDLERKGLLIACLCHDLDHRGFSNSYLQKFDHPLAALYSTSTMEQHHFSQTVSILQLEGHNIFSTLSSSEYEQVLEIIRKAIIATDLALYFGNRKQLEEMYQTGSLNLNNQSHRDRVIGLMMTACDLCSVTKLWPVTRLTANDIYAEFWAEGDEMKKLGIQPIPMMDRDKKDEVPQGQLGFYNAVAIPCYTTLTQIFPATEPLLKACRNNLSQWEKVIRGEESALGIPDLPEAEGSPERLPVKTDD
Assay: Inhibition Assay: The PDE assay was performed according to a modified method referred to a report of Kotera et al. (Kotera et al., Biochem. Pharmacol., vol. 60, pp. 1333-1341, 2000), by the radiolabeled nucleotide method.Specifically, the measurements of the inhibitory activities were carried out in the following method.(Method) The test compounds were dissolved in dimethyl sulfoxide (DMSO). 2 uL of the compound solution was added to 96 well plate, and the reaction mixture (20 uL of PDE enzyme solution in 50 mM Tris-HCl, pH 8.0, 40 uL of the assay buffer (50 mM Tris-HCl, pH 8.0, 2 mM MgCl2, 0.07% 2-mercaptoethanol, and 0.825 mg/mL bovine serum albumin), and 20 uL of 1 mg/mL snake venom in 50 mM Tris-HCl, pH8.0) was added to the 96 well plate. The enzyme reaction was started by adding and mixing with substrate solution of 20 L containing approximate 35 nM 3H-cAMP in 50 mM Tris-HCl, pH 8.0. The final concentration of cAMP in the reaction mixtures was 7 nM.
Answer by giving the amount and then stating its unit.

Req: // fetch IC50 given entry Cc1nc2ccc(F)cc2nc1-c1cc2nc(N3CCCC3)cc(N[C@H]3CCCC[C@@H]3O)n2n1
Resp: 0.035 nM

Req: // fetch IC50 given entry CO[C@H]1CC[C@H](Nc2cc(N3CCCC3)nc3cc(-c4nc5cc(C(F)(F)F)ccc5nc4C)nn23)CC1
Resp: 0.045 nM

Req: // fetch IC50 given entry Cc1nc2ccccc2nc1-c1cc2nc(N3CCCC3)cc(OC3CCOCC3)n2n1
Resp: 0.38 nM

Req: // fetch IC50 given entry Cc1nc2ccccc2nc1-c1cc2nc(N3CCCC3)cc(CC3CCOCC3)n2n1
Resp: 0.36 nM

Req: // fetch IC50 given entry Cc1ccc2nc(C)c(-c3cc4nc(N5CCCC5)cc(N[C@@H]5CCS(=O)(=O)C5)n4n3)nc2c1
Resp: 0.0085 nM

Req: // fetch IC50 given entry Cc1nc2ccccc2nc1-c1cc2nc(N3CCCC3)cc(NCCC#N)n2n1
Resp: 0.052 nM

Req: // fetch IC50 given entry Cc1nc2ccccc2nc1-c1cc2nc(N3CC[C@@H](F)C3)cc(NC3CCOCC3)n2n1
Resp: 0.83 nM

Req: // fetch IC50 given entry Cc1nc2ccccc2nc1-c1cc2nc(N3CC[C@@H](F)C3)cc(NC3COC3)n2n1
Resp: 0.65 nM

Req: // fetch IC50 given entry CCc1nc2ccccc2nc1-c1cc2nc(N3CC[C@@H](F)C3)cc(N[C@H]3CC[C@H](OC)CC3)n2n1
Resp: 0.39 nM
